- System: Bacillus subtilis 168
Criterion: MIC strictly less than 1 µM. Met: fulfilled. Not met: not fulfilled.

For orientation, consider the following solved cases.
compound="CC[C@H](C)[C@H](NC(=O)[C@H](Cc1cnc[nH]1)NC(=O)[C@H](CCCCN)NC(=O)[C@H](CC(C)C)NC(=O)[C@H](CC(C)C)NC(=O)[C@H](CO)NC(=O)[C@H](CCSC)NC(=O)[C@H](Cc1c[nH]c2ccccc12)NC(=O)[C@H](CCCCN)NC(=O)[C@@H](N)CO)C(=O)N[C@@H](CC(C)C)C(=O)N[C@@H](CCCCN)C(N)=O [SKWMSLLKHILK]" answer_label="not fulfilled"
compound="CC[C@H](C)[C@H](NC(=O)[C@H](CCCCN)NC(=O)[C@@H]1CCCN1C(=O)[C@H](CC(C)C)NC(=O)[C@@H](NC(=O)[C@H](CCCCN)NC(=O)[C@H](CCCCN)NC(=O)[C@H](Cc1c[nH]c2ccccc12)NC(=O)[C@H](CC(N)=O)NC(=O)[C@@H](N)C(C)C)C(C)C)C(=O)N[C@H](C(=O)N[C@@H](CCCCN)C(=O)N[C@H](C(=O)N[C@@H](C)C(=O)N[C@@H](CCCCN)C(N)=O)C(C)C)[C@@H](C)CC [VNWKKVLPKIIKVAK]" answer_label=fulfilled
compound="CC[C@H](C)[C@H](NC(=O)[C@H](CC(C)C)NC(=O)[C@H](CCCCN)NC(=O)CNC(=O)[C@H](CC(C)C)NC(=O)[C@@H](NC(=O)[C@H](CCCCN)NC(=O)[C@H](CCCCN)NC(=O)[C@H](Cc1c[nH]c2ccccc12)NC(=O)[C@H](CCSC)NC(=O)CN)[C@@H](C)CC)C(=O)N[C@@H](CCCN=C(N)N)C(N)=O [GMWKKILGKLIR]" answer_label=fulfilled

For this compound, is MIC lower than 1 µM? CC[C@H](C)[C@H](NC(=O)[C@H](Cc1cnc[nH]1)NC(=O)[C@H](CCCCN)NC(=O)[C@H](CC(C)C)NC(=O)[C@H](C)NC(=O)[C@H](CO)NC(=O)[C@H](CCSC)NC(=O)[C@H](Cc1c[nH]c2ccccc12)NC(=O)[C@H](CCCCN)NC(=O)CN)C(=O)N[C@@H](CC(C)C)C(=O)N[C@@H](CCCCN)C(N)=O [GKWMSALKHILK] not fulfilled

For this compound, is MIC lower than 1 µM? CC[C@H](C)[C@H](NC(=O)[C@H](CCCCN)NC(=O)[C@H](CCCCN)NC(=O)[C@H](Cc1c[nH]c2ccccc12)NC(=O)[C@@H](NC(=O)[C@@H](N)CC(N)=O)C(C)C)C(=O)N[C@@H](CC(C)C)C(=O)NCC(=O)N[C@@H](CCCCN)C(=O)N[C@H](C(=O)N[C@H](C(=O)N[C@@H](CCCCN)C(=O)N[C@H](C(=O)N[C@H](C(=O)N[C@@H](CCCCN)C(N)=O)C(C)C)C(C)C)[C@@H](C)CC)[C@@H](C)CC [NVWKKILGKIIKVVK] fulfilled

For this compound, is MIC lower than 1 µM? CC[C@H](C)[C@H](NC(=O)[C@H](Cc1cnc[nH]1)NC(=O)[C@H](CCCCN)NC(=O)[C@H](CC(C)C)NC(=O)[C@H](CC(C)C)NC(=O)[C@H](CO)NC(=O)[C@H](CCSC)NC(=O)[C@H](C)NC(=O)[C@H](CCCCN)NC(=O)CN)C(=O)N[C@@H](CC(C)C)C(=O)N[C@@H](CCCCN)C(N)=O [GKAMSLLKHILK] not fulfilled

For this compound, is MIC lower than 1 µM? CC[C@H](C)[C@H](NC(=O)[C@H](C)NC(=O)CNC(=O)[C@H](Cc1c[nH]c2ccccc12)NC(=O)[C@H](CCCCN)NC(=O)[C@@H](N)CC(C)C)C(=O)N[C@@H](CC(C)C)C(=O)N[C@@H](CCCCN)C(=O)N[C@@H](Cc1cnc[nH]1)C(=O)N[C@H](C(=O)N[C@H](C(=O)N[C@@H](CCCCN)C(N)=O)[C@@H](C)CC)[C@@H](C)CC [LKWGAILKHIIK] not fulfilled

For this compound, is MIC lower than 1 µM? CC[C@H](C)[C@H](NC(=O)[C@H](CCC(N)=O)NC(=O)[C@H](CCCCN)NC(=O)[C@H](CC(C)C)NC(=O)[C@H](CC(C)C)NC(=O)[C@H](CO)NC(=O)[C@H](CCSC)NC(=O)[C@H](Cc1c[nH]c2ccccc12)NC(=O)[C@H](CCCCN)NC(=O)CN)C(=O)N[C@@H](CC(C)C)C(=O)N[C@@H](CCCCN)C(N)=O [GKWMSLLKQILK] not fulfilled

For this compound, is MIC lower than 1 µM? CC[C@H](C)[C@H](NC(=O)[C@@H](NC(=O)[C@H](CCCCN)NC(=O)CNC(=O)[C@@H](NC(=O)[C@@H](NC(=O)[C@H](CO)NC(=O)[C@@H](NC(=O)[C@@H](NC(=O)[C@@H]1CCCN1C(=O)[C@@H](NC(=O)[C@@H](NC(=O)CN)[C@@H](C)CC)[C@@H](C)CC)[C@@H](C)CC)[C@@H](C)CC)[C@@H](C)CC)[C@@H](C)CC)[C@@H](C)CC)C(N)=O [GIIPIISIIGKII] not fulfilled

For this compound, is MIC lower than 1 µM? CSCC[C@H](NC(=O)[C@H](Cc1c[nH]c2ccccc12)NC(=O)[C@H](CCCCN)NC(=O)CN)C(=O)N[C@@H](CO)C(=O)N[C@@H](CC(C)C)C(=O)N[C@@H](CC(C)C)C(=O)N[C@@H](CCCCN)C(=O)N[C@@H](Cc1cnc[nH]1)C(=O)N[C@@H](Cc1c[nH]c2ccccc12)C(=O)N[C@@H](CC(C)C)C(=O)N[C@@H](CCCCN)C(N)=O [GKWMSLLKHWLK] not fulfilled

For this compound, is MIC lower than 1 µM? CC[C@H](C)[C@H](NC(=O)CN)C(=O)N[C@@H](CC(C)C)C(=O)N[C@@H](CO)C(=O)N[C@@H](CO)C(=O)N[C@@H](CC(C)C)C(=O)N[C@@H](Cc1c[nH]c2ccccc12)C(=O)N[C@@H](CCCCN)C(=O)N[C@@H](CCCCN)C(=O)N[C@@H](CC(C)C)C(=O)N[C@@H](CCCCN)C(=O)N[C@@H](CCCCN)C(=O)N[C@@H](Cc1c[nH]c2ccccc12)C(=O)N[C@H](C(=O)N[C@@H](C)C(=O)N[C@@H](CCCCN)C(N)=O)[C@@H](C)CC [GILSSLWKKLKKWIAK] not fulfilled
